- measurement.description: Half life in fasted nu/nu mouse at 10 mg/kg, po by LC/MS/MS analysis
- Type: ADME, organism-based
- Set-up: dose 10 mg/kg, route oral
- condition.label: in vivo
Examples of molecules with documented half-life follow.

> print(dat)
                               query.smiles  measured.quantity  observed.measurement
1  CNC(=O)c1nn(C)c2c1C(C)(C)Cc1cnc(Nc3ccc(CN4CCN(C)CC4)cc3)nc1-2.Cl          half-life                 4.2 h
2  CNC(=O)c1nn(C)c2c1C(C)(C)Cc1cnc(Nc3ccc(CN(C)C)cc3)nc1-2.Cl          half-life                 3.4 h
3  CNC(=O)c1nn(C)c2c1C(C)(C)Cc1cnc(Nc3ccc(OC4CCN(C)CC4)cc3)nc1-2.Cl          half-life                 3.9 h

Now look at this one.
IN: // half-life lookup, key: CNC(=O)c1nn(C)c2c1C(C)(C)Cc1cnc(Nc3ccc(N4CCN(C)CC4)cc3)nc1-2.Cl
OUT: 2.9 h

----------
Examples of compounds with documented Vd follow.
- measurement.description: Volume of distribution at steady state in fasted nu/nu mouse at 10 mg/kg, iv by LC/MS/MS analysis
- Format: ADME, organism-based
- Parameters: dose 10 mg/kg, route intravenous
- condition.label: in vivo, read-out: Vdss
# unit: L/kg | format: bare number

Reference set, count: 3
> print(dat)
                               query.smiles  measured.quantity  observed.measurement
1  CNC(=O)c1nn(C)c2c1C(C)(C)Cc1cnc(Nc3ccc(OC4CCN(C)CC4)cc3)nc1-2.Cl                 Vd                  5.27
2  CNC(=O)c1nn(C)c2c1C(C)(C)Cc1cnc(Nc3ccc(CN(C)C)cc3)nc1-2.Cl                 Vd                  4.04
3  CNC(=O)c1nn(C)c2c1C(C)(C)Cc1cnc(Nc3ccc(N4CCN(C)CC4)cc3)nc1-2.Cl                 Vd                  4.82

Now look at this one.
IN: // Vd lookup, key: CNC(=O)c1nn(C)c2c1C(C)(C)Cc1cnc(Nc3ccc(CN4CCN(C)CC4)cc3)nc1-2.Cl
OUT: 3.23

----------
- study.target: UniProtKB P08684
- Sequence (P08684 whole entry): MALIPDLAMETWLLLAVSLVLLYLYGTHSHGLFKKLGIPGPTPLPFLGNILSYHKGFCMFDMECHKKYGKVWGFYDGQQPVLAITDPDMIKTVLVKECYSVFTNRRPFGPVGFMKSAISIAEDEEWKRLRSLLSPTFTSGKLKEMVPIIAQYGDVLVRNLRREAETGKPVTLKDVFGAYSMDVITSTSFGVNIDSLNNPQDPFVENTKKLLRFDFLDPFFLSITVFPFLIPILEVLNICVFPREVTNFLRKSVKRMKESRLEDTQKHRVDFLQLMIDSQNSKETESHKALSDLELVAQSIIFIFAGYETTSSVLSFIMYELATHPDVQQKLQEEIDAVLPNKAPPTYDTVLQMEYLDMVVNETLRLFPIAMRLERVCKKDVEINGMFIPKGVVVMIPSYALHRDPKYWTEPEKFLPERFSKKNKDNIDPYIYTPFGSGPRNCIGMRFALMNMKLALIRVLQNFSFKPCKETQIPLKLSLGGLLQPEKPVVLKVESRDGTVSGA
- measurement.description: Inhibition of human CYP3A4 assessed as compound remaining by LC/MS/MS analysis
- Format: ADME
- Design: concentration or dose not given beside the values
Assign Satisfied whenever Activity does not fall below 80%; assign Not satisfied whenever it does.

> print(dat)
                               query.smiles  category.label
1  CNC(=O)c1nn(C)c2c1C(C)(C)Cc1cnc(Nc3ccc(OC4CCN(C)CC4)cc3)nc1-2.Cl   Not satisfied
2  CNC(=O)c1nn(C)c2c1C(C)(C)Cc1cnc(Nc3ccc(N4CCN(C)CC4)cc3)nc1-2.Cl       Satisfied
3  CNC(=O)c1nn(C)c2c1C(C)(C)Cc1cnc(Nc3ccc(CN4CCN(C)CC4)cc3)nc1-2.Cl   Not satisfied

IN: Given the entry CNC(=O)c1nn(C)c2c1C(C)(C)Cc1cnc(Nc3ccc(CN(C)C)cc3)nc1-2.Cl , answer whether its Activity meets or surpasses 80%.
OUT: Not satisfied
